Each recorded value in this set is attributed to ChEMBL document CHEMBL4325884.

biological target: Envelope glycoprotein gp160 (Human immunodeficiency virus 1, UniProt Q6QLK5)
Sequence (Q6QLK5 whole entry): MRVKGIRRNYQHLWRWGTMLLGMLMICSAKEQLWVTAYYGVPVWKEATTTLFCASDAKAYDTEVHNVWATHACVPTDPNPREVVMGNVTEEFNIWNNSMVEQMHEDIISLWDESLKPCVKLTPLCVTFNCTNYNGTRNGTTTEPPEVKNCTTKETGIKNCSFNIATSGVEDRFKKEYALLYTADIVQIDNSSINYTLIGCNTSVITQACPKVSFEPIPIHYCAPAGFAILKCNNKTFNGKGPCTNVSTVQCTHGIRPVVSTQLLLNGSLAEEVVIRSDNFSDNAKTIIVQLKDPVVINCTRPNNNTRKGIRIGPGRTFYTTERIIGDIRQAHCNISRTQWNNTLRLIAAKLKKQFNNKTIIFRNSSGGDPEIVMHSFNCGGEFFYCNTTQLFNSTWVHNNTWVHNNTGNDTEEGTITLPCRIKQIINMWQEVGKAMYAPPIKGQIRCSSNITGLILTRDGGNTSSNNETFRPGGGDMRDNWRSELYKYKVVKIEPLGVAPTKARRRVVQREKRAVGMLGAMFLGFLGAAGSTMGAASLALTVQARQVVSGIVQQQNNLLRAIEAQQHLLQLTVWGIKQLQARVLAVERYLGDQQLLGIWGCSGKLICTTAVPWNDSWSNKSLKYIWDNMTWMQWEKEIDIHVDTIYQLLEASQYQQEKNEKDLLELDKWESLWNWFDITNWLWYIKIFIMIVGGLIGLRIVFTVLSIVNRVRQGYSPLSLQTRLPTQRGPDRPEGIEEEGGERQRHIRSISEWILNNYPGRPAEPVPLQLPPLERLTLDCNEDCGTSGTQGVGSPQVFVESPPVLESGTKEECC
pKi: −log10 of the molar value.
Lab note: anything with pKi at or over 6 counts as condition met; the rest go in condition not met.

Previously resolved entries follow.
>  <Smiles Str>
Cn1ccc2cc(F)c(-c3ccc4ccn(Cc5cc(F)cc(C(=O)O)c5)c4c3)cc21

>  <Group Label>
condition not met

$$$$
>  <Smiles Str>
CN(C(=O)OC(C)(C)C)c1cccc(-c2ccc3ccn(Cc4cccc(C(=O)O)c4)c3c2)c1

>  <Group Label>
condition not met

$$$$

Identify whether the reported pKi of the following compound is 6 or greater: "CC(C)(C)OC(=O)c1cccc(Cn2ccc3ccc(-c4ccc5ccn(Cc6cccc(C(=O)O)c6)c5c4)cc32)c1" condition met

Identify whether the reported pKi of the following compound is 6 or greater: "O=C(O)c1cccc(Cn2ccc3ccc(-c4ccc5ccn(Cc6cccc([N+](=O)[O-])c6)c5c4)cc32)c1" condition not met
